Please respond with reported Kd for every item in the list.
tested_system: SARS-CoV-2 wild-type RBD (SARS-CoV-2 wild type)
assay_name: BLI
condition_label: both partners purified
Report the figure in pM without appending any unit label.

Data request: Return reported Kd; argument: C807 (antibody, V domains shown, human IgG1) VH: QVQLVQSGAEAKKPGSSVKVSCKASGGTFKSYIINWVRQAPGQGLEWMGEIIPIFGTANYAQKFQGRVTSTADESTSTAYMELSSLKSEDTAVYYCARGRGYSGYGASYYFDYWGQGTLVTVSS VL: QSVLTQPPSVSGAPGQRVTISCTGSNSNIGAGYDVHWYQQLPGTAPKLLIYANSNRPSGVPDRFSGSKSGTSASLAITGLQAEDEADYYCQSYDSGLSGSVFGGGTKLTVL
Data returned: 790

Data request: Return reported Kd; argument: C978 (antibody, V domains shown, human IgG1) VH: QVQLVQSGAEVKKPGSSVKVSCKASGATFSNYIISWVRQAPGQGLEWMGRTIPLLDIANYAQKFQGRVTITADKSTRIVYMHLGSLTSEDTAVYYCATGKGYSSSSAAYYFDHWGQGTLVTVSS VL: QSVLTQPPSVSGAPGQRVTISCTGTNSNIGAGYDIHWYQQLPGTAPKLLIYGSNNRPSGVPDRFSGSKSGTSASLAITGLQAEDEADYYCQSYDSSLSGSEVFGGGTKLTVL
Data returned: 990

Data request: Return reported Kd; argument: C963 (antibody, V domains shown, human IgG1) VH: QVQLVQSGAEVKKPGSSVRVSCKASGGTFSSFTITWVRQAPGQGLEWMGRIIPNLNIPNYAQRFQGRITITAEKSTSTAYLELSSLRSEDTAVYYCARGVGYSGSGSNWYFDLWGRGTLVTVSS VL: QSVLTQPPSVSGAPGQRVTISCTGSSSNIGAGYDVHWYQQLPGTAPKLLISGHINRPSGVPDRFSGSTSGTSASLAITGLQAEDEADYYCQSYDSSLSDSVFGGGTKLTV
Data returned: 840

Data provenance is paper PMC9519457.
